# credit: patent US4461899A

Recorded Fruit Yield, Green (% of Control), one value per entry.
- System: field grown tomato plants
- Protocol details: Overall yield and fruit size of field grown tomatoes
- Type: in vivo
- Measurement context: 50 ppm

Worked examples follow.
O=C(O)c1cccc2c1Cc1ccccc1-2 [Example 1]	45 % of Control
COC(=O)C1(N2[C@H](C)CC[C@@H]2C)c2ccccc2-c2ccc(Cl)cc21 (stereo partly shown) [Example 8]	26 % of Control
O=C(O)c1cccc2c1Cc1ccccc1-2 [Example 3]	69 % of Control

Consider the record given below.
Problem: Looking for the measured Fruit Yield, Green (% of Control) of COC(=O)C1(O)c2ccccc2-c2ccc(Cl)cc21 (stereo not shown) [MAINTAIN CF-125] , can you help?
Result: 12 % of Control

----------
- Tested on: field grown tomato plants
- Protocol details: Overall yield and fruit size of field grown tomatoes
- Assay type: in vivo
- Measurement context: 50 ppm
Recorded Fruit Yield, Red (% of Control), one value per entry.

COC(=O)C1(O)c2ccccc2-c2ccc(Cl)cc21 (stereo not shown)	122 % of Control
COC(=O)C1(N2[C@H](C)CC[C@@H]2C)c2ccccc2-c2ccc(Cl)cc21 (stereo partly shown)	93 % of Control
O=C(O)c1cccc2c1Cc1ccccc1-2 [Example 3]	122 % of Control

Consider the record given below.
Problem: Looking for the measured Fruit Yield, Red (% of Control) of O=C(O)c1cccc2c1Cc1ccccc1-2 [Example 1] , can you help?
Result: 149 % of Control

----------
- Tested on: field grown tomato plants
- Protocol details: Overall yield and fruit size of field grown tomatoes
- Assay type: in vivo
- Measurement context: 500 ppm
Recorded Total Yield (% of Control), one value per entry.

Worked examples follow.
COC(=O)C1(O)c2ccccc2-c2ccc(Cl)cc21 (stereo not shown)	29 % of Control
O=C(O)c1cccc2c1Cc1ccccc1-2 [Example 3]	59 % of Control
O=C(O)c1cccc2c1Cc1ccccc1-2 [Example 1]	59 % of Control

Problem: Looking for the measured Total Yield (% of Control) of COC(=O)C1(N2[C@H](C)CC[C@@H]2C)c2ccccc2-c2ccc(Cl)cc21 (stereo partly shown) , can you help?
Result: 26 % of Control

----------
- Tested on: field grown tomato plants
- Protocol details: Overall yield and fruit size of field grown tomatoes
- Format: in vivo
- Measurement context: 10 ppm; control 104.0 g
- Text: This example illustrates the effects of compounds of this invention on overall yield of tomatoes. For the test, field grown tomato plants, when in the early flowering stage, were foliage sprayed with the particular compounds of the invention designated below, and with the commercial product CF-125 (Maintain), at rates of 10, 50 and 500 ppm. These rates correspond to applications of 3.69 g, 18.54 g and 185.4 g/hectare, respectively. […]
Assay metric: Fruit Size, Green (% of Control)

Worked examples follow.
O=C(O)c1cccc2c1Cc1ccccc1-2 [Example 3]	137 % of Control
O=C(O)c1cccc2c1Cc1ccccc1-2 [Example 1]	76 % of Control
COC(=O)C1(O)c2ccccc2-c2ccc(Cl)cc21 (stereo not shown)	104 % of Control

Consider the record given below.
Problem: Looking for the measured Fruit Size, Green (% of Control) of COC(=O)C1(N2[C@H](C)CC[C@@H]2C)c2ccccc2-c2ccc(Cl)cc21 (stereo partly shown) , can you help?
Result: 93 % of Control

----------
- Test system: field grown tomato plants
- Protocol details: Overall yield and fruit size of field grown tomatoes
- Type: in vivo
- Measurement context: 500 ppm
- From the text: This example illustrates the effects of compounds of this invention on overall yield of tomatoes. For the test, field grown tomato plants, when in the early flowering stage, were foliage sprayed with the particular compounds of the invention designated below, and with the commercial product CF-125 (Maintain), at rates of 10, 50 and 500 ppm. These rates correspond to applications of 3.69 g, 18.54 g and 185.4 g/hectare, respectively. […]
Assay metric: Fruit Yield, Green (% of Control)

Worked examples follow.
O=C(O)c1cccc2c1Cc1ccccc1-2 [Example 1]	54 % of Control
O=C(O)c1cccc2c1Cc1ccccc1-2 [Example 3]	86 % of Control
COC(=O)C1(O)c2ccccc2-c2ccc(Cl)cc21 (stereo not shown) [MAINTAIN CF-125]	3 % of Control

Problem: Looking for the measured Fruit Yield, Green (% of Control) of COC(=O)C1(N2[C@H](C)CC[C@@H]2C)c2ccccc2-c2ccc(Cl)cc21 (stereo partly shown) [Example 8] , can you help?
Result: 0 % of Control
